Experiment: Biodistribution studies incl. blocking experiments
Assay type: in vivo
Details: healthy BALB/c mice, 10 min p.i.
Quantity name: Biodistribution Blood (% ID/g)
Express it in % ID/g; write the number only.

Examples with answers:
Compound	Biodistribution Blood (% ID/g)
O=C(CCP(=O)([O-])CN1CCN(CP(=O)([O-])CCC(=O)NCc2cn(CCOCCOCCO[C@@H]3O[C@H](CO)[C@H](O)[C@H](O)[C@H]3O)nn2)CCN(CP(=O)([O-])CCC(=O)NCc2cn(CCOCCOCCO[C@@H]3O[C@H](CO)[C@H](O)[C@H](O)[C@H]3O)nn2)CC1)NCc1cn(CCOCCOCCO[C@@H]2O[C@H](CO)[C@H](O)[C@H](O)[C@H]2O)nn1.[68Ga+3] [[^68Ga]Ga-TRAP-Galactan]	3.66
O=C(O)CN1CCN(CC(=O)O)CCN([C@H](CCC(=O)NCCCC(=O)NC(COCc2cn(CCOCCOCCO[C@@H]3O[C@H](CO)[C@H](O)[C@H](O)[C@H]3O)nn2)(COCc2cn(CCOCCOCCO[C@@H]3O[C@H](CO)[C@H](O)[C@H](O)[C@H]3O)nn2)COCc2cn(CCOCCOCCO[C@@H]3O[C@H](CO)[C@H](O)[C@H](O)[C@H]3O)nn2)C(=O)O)CC1 [[^68Ga]Ga-NODAGA-TriGalactan, metal not drawn]	3.3

Q) Biodistribution Blood lookup needed for CC(=O)N[C@H]1[C@H](OCCOCCOCCn2cc(CNC(=O)CCP(=O)([O-])CN3CCN(CP(=O)([O-])CCC(=O)NCc4cn(CCOCCOCCO[C@@H]5O[C@H](CO)[C@H](O)[C@H](O)[C@H]5NC(C)=O)nn4)CCN(CP(=O)([O-])CCC(=O)NCc4cn(CCOCCOCCO[C@@H]5O[C@H](CO)[C@H](O)[C@H](O)[C@H]5NC(C)=O)nn4)CC3)nn2)O[C@H](CO)[C@H](O)[C@@H]1O.[68Ga+3] [[^68Ga]Ga-TRAP-GalNAc] , thanks.
A) 0.64

###

Measured Biodistribution Pancreas of individual entries
Experiment: Biodistribution studies incl. blocking experiments
Assay type: in vivo
Settings: healthy BALB/c mice, 30 min p.i.
Express it in % ID/g; write the number only.

Molecule	Scale unit	Recorded number
CC(=O)N[C@H]1[C@H](OCCOCCOCCn2cc(CNC(=O)CCP(=O)([O-])CN3CCN(CP(=O)([O-])CCC(=O)NCc4cn(CCOCCOCCO[C@@H]5O[C@H](CO)[C@H](O)[C@H](O)[C@H]5NC(C)=O)nn4)CCN(CP(=O)([O-])CCC(=O)NCc4cn(CCOCCOCCO[C@@H]5O[C@H](CO)[C@H](O)[C@H](O)[C@H]5NC(C)=O)nn4)CC3)nn2)O[C@H](CO)[C@H](O)[C@@H]1O.[68Ga+3] [[^68Ga]Ga-TRAP-GalNAc]	% ID/g	1.50
O=C(CCP(=O)([O-])CN1CCN(CP(=O)([O-])CCC(=O)NCc2cn(CCOCCOCCO[C@@H]3O[C@H](CO)[C@H](O)[C@H](O)[C@H]3O)nn2)CCN(CP(=O)([O-])CCC(=O)NCc2cn(CCOCCOCCO[C@@H]3O[C@H](CO)[C@H](O)[C@H](O)[C@H]3O)nn2)CC1)NCc1cn(CCOCCOCCO[C@@H]2O[C@H](CO)[C@H](O)[C@H](O)[C@H]2O)nn1.[68Ga+3] [[^68Ga]Ga-TRAP-Galactan]	% ID/g	0.53
O=C(CCP(=O)([O-])CN1CCN(CP(=O)([O-])CCC(=O)NCc2cn([C@@H]3O[C@H](CO)[C@H](O)[C@H](O)[C@H]3O)nn2)CCN(CP(=O)([O-])CCC(=O)NCc2cn([C@@H]3O[C@H](CO)[C@H](O)[C@H](O)[C@H]3O)nn2)CC1)NCc1cn([C@@H]2O[C@H](CO)[C@H](O)[C@H](O)[C@H]2O)nn1.[68Ga+3] [[^68Ga]Ga-Galacto-TRAP]	% ID/g	0.49
O=C(O)CN1CCN(CC(=O)O)CCN([C@H](CCC(=O)NCCCC(=O)NC(COCc2cn(CCOCCOCCO[C@@H]3O[C@H](CO)[C@H](O)[C@H](O)[C@H]3O)nn2)(COCc2cn(CCOCCOCCO[C@@H]3O[C@H](CO)[C@H](O)[C@H](O)[C@H]3O)nn2)COCc2cn(CCOCCOCCO[C@@H]3O[C@H](CO)[C@H](O)[C@H](O)[C@H]3O)nn2)C(=O)O)CC1 [[^68Ga]Ga-NODAGA-TriGalactan, metal not drawn]	% ID/g	0.31

Moving on to another molecule below.
Q) Biodistribution Pancreas lookup needed for O=C(CCP(=O)([O-])CN1CCN(CP(=O)([O-])CCC(=O)NCc2cn(CCOCCOCCO[C@@H]3O[C@H](CO)[C@@H](O)[C@H](O)[C@H]3O)nn2)CCN(CP(=O)([O-])CCC(=O)NCc2cn(CCOCCOCCO[C@@H]3O[C@H](CO)[C@@H](O)[C@H](O)[C@H]3O)nn2)CC1)NCc1cn(CCOCCOCCO[C@@H]2O[C@H](CO)[C@@H](O)[C@H](O)[C@H]2O)nn1.[68Ga+3] [[^68Ga]Ga-TRAP-Gluco, reference compound] , thanks.
A) 0.47

These measurements were taken from patent US20260151516A1.
